src = ChEMBL document CHEMBL2412960

Each entry below carries its recorded CC50 at 72 h.
Test: Cytotoxicity against human Jurkat cells after 72 hrs by MTT assay
Assay type: cell-based
Conditions: read-out: CD50
OUTCOME MEASURE: CC50 at 72 h (mg/L)

[
  {
    "COMPOUND SMILES": "CCCCCCCCCCCOCc1cn([C@H]2C[C@H](O)[C@@H](CO)O2)c(=O)[nH]c1=O",
    "CENSORING OPERATOR": "=",
    "READOUT NUMBER": 70
  },
  {
    "COMPOUND SMILES": "CCCCCCCCc1cn(Cc2cn([C@H]3C[C@H](O)[C@@H](CO)O3)c(=O)[nH]c2=O)nn1",
    "CENSORING OPERATOR": ">",
    "READOUT NUMBER": 100
  },
  {
    "COMPOUND SMILES": "CCCCCCCCCCCCOCc1cn([C@H]2C[C@H](N)[C@@H](CO)O2)c(=O)[nH]c1=O",
    "CENSORING OPERATOR": "=",
    "READOUT NUMBER": 7
  },
  {
    "COMPOUND SMILES": "CCCCCCCCCCCCOCc1cn([C@H]2C[C@H](O)[C@@H](CO)O2)c(=O)[nH]c1=O",
    "CENSORING OPERATOR": "=",
    "READOUT NUMBER": 100
  },
  {
    "COMPOUND SMILES": "CCCCCCCCCCCCOCc1cn([C@H]2C[C@H](O)[C@@H](CI)O2)c(=O)[nH]c1=O",
    "CENSORING OPERATOR": ">",
    "READOUT NUMBER": 100
  },
  {
    "COMPOUND SMILES": "CCCCCCCCCCCCOCc1cn([C@H]2C[C@H](O)[C@@H](CN=[N+]=[N-])O2)c(=O)[nH]c1=O",
    "CENSORING OPERATOR": "=",
    "READOUT NUMBER": 18
  },
  {
    "COMPOUND SMILES": "CCCCCCCCCCCCOCc1cn([C@H]2C[C@H](O)[C@@H](CO)O2)c(=O)nc1N",
    "CENSORING OPERATOR": "=",
    "READOUT NUMBER": 37
  },
  {
    "COMPOUND SMILES": "CCCCCCCCCCCCc1cn(Cc2cn([C@H]3C[C@H](O)[C@@H](CO)O3)c(=O)nc2N)nn1",
    "CENSORING OPERATOR": "=",
    "READOUT NUMBER": 100
  },
  {
    "COMPOUND SMILES": "CCCCCCCCCCCCc1cn(Cc2cn([C@H]3C[C@H](O)[C@@H](CO)O3)c(=O)[nH]c2=O)nn1",
    "CENSORING OPERATOR": ">",
    "READOUT NUMBER": 100
  },
  {
    "COMPOUND SMILES": "CCCCCCCCCCCCOCc1cn([C@H]2C[C@H](O)[C@@H](CN)O2)c(=O)[nH]c1=O",
    "CENSORING OPERATOR": "=",
    "READOUT NUMBER": 7
  },
  {
    "COMPOUND SMILES": "CCCCCCCCCCCCOCc1cn([C@H]2C[C@H](NCC)[C@@H](CO)O2)c(=O)[nH]c1=O",
    "CENSORING OPERATOR": "=",
    "READOUT NUMBER": 5
  },
  {
    "COMPOUND SMILES": "CCCCCCCCCCc1cn(Cc2cn([C@H]3C[C@H](O)[C@@H](CO)O3)c(=O)[nH]c2=O)nn1",
    "CENSORING OPERATOR": "=",
    "READOUT NUMBER": 100
  },
  {
    "COMPOUND SMILES": "CCCCCCCCCCCCOCc1cn([C@@H]2C[C@H](O)[C@@H](CO)O2)c(=O)[nH]c1=O",
    "CENSORING OPERATOR": "=",
    "READOUT NUMBER": 40
  },
  {
    "COMPOUND SMILES": "CCCCCCCCCCCCOCc1cn([C@H]2C[C@H](N(CC)CC)[C@@H](CO)O2)c(=O)[nH]c1=O",
    "CENSORING OPERATOR": "=",
    "READOUT NUMBER": 5
  },
  {
    "COMPOUND SMILES": "CCCCCCCCCCc1cn(Cc2cn([C@H]3C[C@H](O)[C@@H](CO)O3)c(=O)nc2N)nn1",
    "CENSORING OPERATOR": "=",
    "READOUT NUMBER": 100
  },
  {
    "COMPOUND SMILES": "CCCCCCCCCCCCOCc1cn([C@H]2C[C@H](N=[N+]=[N-])[C@@H](CO)O2)c(=O)[nH]c1=O",
    "CENSORING OPERATOR": "=",
    "READOUT NUMBER": 8
  },
  {
    "COMPOUND SMILES": "CCCCCCCCc1cn(Cc2cn([C@H]3C[C@H](O)[C@@H](CO)O3)c(=O)nc2N)nn1",
    "CENSORING OPERATOR": ">",
    "READOUT NUMBER": 100
  }
]
